Hey, just so you know, these numbers are from paper PMC3267017.

Each record here notes measured pEC50.
# system: MetJ dimer–DNA complex (F-metC) (Escherichia coli, UniProt P0A8U6)
# Sequence (P0A8U6 2-105, one chain of several): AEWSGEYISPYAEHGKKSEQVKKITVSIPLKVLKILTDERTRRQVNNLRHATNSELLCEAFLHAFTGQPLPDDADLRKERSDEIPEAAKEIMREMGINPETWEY
# experimental-protocol: Fluorescence anisotropy assay: MetJ titrated into F-metC DNA and ligand, MetJ dimer–DNA complex formation
# Format: binding
# test-context: bivalent ligand 1 mM; F-metC 10 nM; DMSO 2%; average of three titrations; read-out: EC50, concentration of MetJ monomer required to promote half-maximal formation of its complex with the F-metC DNA
On this scale, pEC50 is minus log10 of a concentration expressed in M (mol/L).

Recorded pEC50, per entry:
C[N+](C)(CC[C@H](N)C(=O)NCc1ccc(CNC(=O)[C@@H](N)CC[N+](C)(C)C[C@H]2O[C@@H](n3cnc4c(N)ncnc43)[C@H](O)[C@@H]2O)cc1)C[C@H]1O[C@@H](n2cnc3c(N)ncnc32)[C@H](O)[C@@H]1O [Compound 10a] | 7.82
CN(CC[C@H](N)C(=O)NCc1cccc(CNC(=O)[C@@H](N)CCN(C)C[C@H]2O[C@@H](n3cnc4c(N)ncnc43)[C@H](O)[C@@H]2O)c1)C[C@H]1O[C@@H](n2cnc3c(N)ncnc32)[C@H](O)[C@@H]1O | 7.43
CN(CC[C@H](N)C(=O)NCc1cccc(-c2cccc(CNC(=O)[C@@H](N)CCN(C)C[C@H]3O[C@@H](n4cnc5c(N)ncnc54)[C@H](O)[C@@H]3O)c2)c1)C[C@H]1O[C@@H](n2cnc3c(N)ncnc32)[C@H](O)[C@@H]1O | 7.12

Please fill in: pEC50 reported for CN(CC[C@H](N)C(=O)NCc1ccccc1-c1ccccc1CNC(=O)[C@@H](N)CCN(C)C[C@H]1O[C@@H](n2cnc3c(N)ncnc32)[C@H](O)[C@@H]1O)C[C@H]1O[C@@H](n2cnc3c(N)ncnc32)[C@H](O)[C@@H]1O = 7.41
